Biological target: SHP2 (Homo sapiens, UniProt Q06124)
Sequence (Q06124 1-593): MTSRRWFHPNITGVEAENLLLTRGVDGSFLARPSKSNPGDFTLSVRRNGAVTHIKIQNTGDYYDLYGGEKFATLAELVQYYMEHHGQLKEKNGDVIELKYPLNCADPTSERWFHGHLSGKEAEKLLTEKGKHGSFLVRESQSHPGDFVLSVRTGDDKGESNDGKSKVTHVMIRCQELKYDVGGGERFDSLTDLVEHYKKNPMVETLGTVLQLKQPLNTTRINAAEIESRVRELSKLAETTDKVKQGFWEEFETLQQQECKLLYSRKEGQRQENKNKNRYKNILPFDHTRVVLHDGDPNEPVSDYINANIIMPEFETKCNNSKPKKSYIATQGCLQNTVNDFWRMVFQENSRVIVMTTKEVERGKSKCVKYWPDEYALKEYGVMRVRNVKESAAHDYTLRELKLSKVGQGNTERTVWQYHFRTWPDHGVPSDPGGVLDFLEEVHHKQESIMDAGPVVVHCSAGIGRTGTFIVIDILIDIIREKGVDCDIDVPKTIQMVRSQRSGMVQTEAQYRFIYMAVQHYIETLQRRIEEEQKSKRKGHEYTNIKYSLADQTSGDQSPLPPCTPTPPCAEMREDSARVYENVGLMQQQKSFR
Assay: SHP2 degradation by Western blot in KYSE520 cells
Details: 0.1 µM
Would you mind telling me the reported % of SHP2 protein degradation in KYSE520 cell line of each entry?
Answers are plain numbers, in %.

Cc1ncsc1-c1ccc([C@@H](C)NC(=O)[C@H]2C[C@H](O)CN2C(=O)[C@H](NC(=O)CCCCCNC(=O)CC(=O)Nc2cccc(Sc3ncc(N4CCC(C)(N)CC4)nc3N)c2Cl)C(C)(C)C)cc1 [Compound 10] : 0

Next item in the queue.
Req: Give recorded % of SHP2 protein degradation in KYSE520 cell line with SHP2 (Homo sapiens, UniProt Q06124) for the following molecule: Cc1ncsc1-c1ccc([C@@H](C)NC(=O)[C@H]2C[C@H](O)CN2C(=O)[C@H](NC(=O)COCCOCCOCCNC(=O)CCC(=O)Nc2cccc(Sc3ncc(N4CCC(C)(N)CC4)nc3N)c2Cl)C(C)(C)C)cc1 [Compound 20]
Resp: 80

====

Molecular target: SHP2 (Homo sapiens, UniProt Q06124)
Experiment: SHP2 degradation by Western blot in MV4;11 cells
Details: 0.1 µM
ASSAY ENDPOINT: % of SHP2 protein degradation in MV4;11 cell line (%)
Give bare numbers, in %.

Req: Look up % of SHP2 protein degradation in MV4;11 cell line: `Cc1ncsc1-c1ccc([C@@H](C)NC(=O)[C@H]2C[C@H](O)CN2C(=O)[C@H](NC(=O)CCCCCCCOc2ccc(NC(=O)CCC(=O)Nc3cccc(Sc4ncc(N5CCC(C)(N)CC5)nc4N)c3Cl)cc2)C(C)(C)C)cc1`
Resp: 90

====

Molecular target: SHP2 (Homo sapiens)
Assay: SHP2 degradation by Western blot in KYSE520 cells
Conditions: 0.1 µM
Can you tell me % of SHP2 protein degradation in KYSE520 cell line for the items I'm about to list?

Cc1ncsc1-c1ccc([C@@H](C)NC(=O)[C@H]2C[C@H](O)CN2C(=O)[C@H](NC(=O)CCCCCCCCNC(=O)CC(=O)Nc2cccc(Sc3ncc(N4CCC(C)(N)CC4)nc3N)c2Cl)C(C)(C)C)cc1 : 81%

Batch lookup, % of SHP2 protein degradation in KYSE520 cell line per entry.
1. Cc1ncsc1-c1ccc([C@@H](C)NC(=O)[C@H]2C[C@H](O)CN2C(=O)[C@H](NC(=O)CCCCCCCCCCCCCCC(=O)Nc2cccc(Sc3ncc(N4CCC(C)(N)CC4)nc3N)c2Cl)C(C)(C)C)cc1
2. Cc1ncsc1-c1ccc([C@@H](C)NC(=O)[C@H]2C[C@H](O)CN2C(=O)[C@H](NC(=O)CCCCCCCNC(=O)CC(=O)Nc2cccc(Sc3ncc(N4CCC(C)(N)CC4)nc3N)c2Cl)C(C)(C)C)cc1
3. Cc1ncsc1-c1ccc([C@@H](C)NC(=O)[C@H]2C[C@H](O)CN2C(=O)[C@H](NC(=O)CCCCCCCCCCNC(=O)CC(=O)Nc2cccc(Sc3ncc(N4CCC(C)(N)CC4)nc3N)c2Cl)C(C)(C)C)cc1

Resp:
["62%", "20%", ">95%"]

====

Target: SHP2 (Homo sapiens, UniProt Q06124)
Sequence (Q06124 1-593): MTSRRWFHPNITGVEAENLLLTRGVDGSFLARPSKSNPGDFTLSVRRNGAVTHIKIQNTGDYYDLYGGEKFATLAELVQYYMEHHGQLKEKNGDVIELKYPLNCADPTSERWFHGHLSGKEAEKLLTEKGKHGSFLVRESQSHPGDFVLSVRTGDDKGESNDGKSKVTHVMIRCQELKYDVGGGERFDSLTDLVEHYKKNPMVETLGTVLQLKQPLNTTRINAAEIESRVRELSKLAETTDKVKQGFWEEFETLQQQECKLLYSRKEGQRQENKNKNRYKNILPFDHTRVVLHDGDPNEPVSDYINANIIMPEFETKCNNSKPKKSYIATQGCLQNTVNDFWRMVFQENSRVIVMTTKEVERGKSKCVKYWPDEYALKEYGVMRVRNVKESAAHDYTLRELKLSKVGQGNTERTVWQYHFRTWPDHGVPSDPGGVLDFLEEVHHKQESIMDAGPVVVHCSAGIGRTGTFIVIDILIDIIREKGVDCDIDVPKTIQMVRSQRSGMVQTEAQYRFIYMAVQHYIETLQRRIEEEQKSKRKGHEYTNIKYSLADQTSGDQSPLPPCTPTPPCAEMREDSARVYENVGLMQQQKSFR
Assay: SHP2 degradation by Western blot in KYSE520 cells
Settings: 0.1 µM
Classification field: enter Criterion met for % of SHP2 protein degradation in KYSE520 cell line values not below 10%, Criterion not met for values below it.

Example results:
Cc1ncsc1-c1ccc([C@@H](C)NC(=O)[C@H]2C[C@H](O)CN2C(=O)[C@H](NC(=O)CCCCCCCCCCCNC(=O)CC(=O)Nc2cccc(Sc3ncc(N4CCC(C)(N)CC4)nc3N)c2Cl)C(C)(C)C)cc1 : Criterion met
Cc1ncsc1-c1ccc([C@@H](C)NC(=O)[C@H]2C[C@H](O)CN2C(=O)[C@H](NC(=O)CCOCCOCCOCCNC(=O)CCC(=O)Nc2cccc(Sc3ncc(N4CCC(C)(N)CC4)nc3N)c2Cl)C(C)(C)C)cc1 : Criterion met
Cc1ncsc1-c1ccc([C@@H](C)NC(=O)[C@H]2C[C@H](O)CN2C(=O)[C@H](NC(=O)CCCCNC(=O)CC(=O)Nc2cccc(Sc3ncc(N4CCC(C)(N)CC4)nc3N)c2Cl)C(C)(C)C)cc1 : Criterion met

Now look at this entry.
Req: Reported % of SHP2 protein degradation in KYSE520 cell line at or above 10%? `Cc1ncsc1-c1ccc([C@@H](C)NC(=O)[C@H]2C[C@H](O)CN2C(=O)[C@H](NC(=O)CCCCCCCCCCCN2CCN(CC(=O)Nc3cccc(Sc4ncc(N5CCC(C)(N)CC5)nc4N)c3Cl)CC2)C(C)(C)C)cc1`
Resp: Criterion met

====

System: KYSE520 cell line
Experiment: Cell growth assay (WST-8) in KYSE520
Format: cell-based
Details: KYSE520, 4 days; read-out: IC50, cell growth inhibition
ASSAY ENDPOINT: IC50 (µM)
Answers are plain numbers, in µM.

Req: # input compound: CC1(N)CCN(c2cnc(-c3cccc(Cl)c3Cl)c(N)n2)CC1 [SHP099, reference compound] ; wanted: its IC50
Resp: 18.2

====

Target: SHP2 (Homo sapiens, UniProt Q06124)
Sequence (Q06124 1-593): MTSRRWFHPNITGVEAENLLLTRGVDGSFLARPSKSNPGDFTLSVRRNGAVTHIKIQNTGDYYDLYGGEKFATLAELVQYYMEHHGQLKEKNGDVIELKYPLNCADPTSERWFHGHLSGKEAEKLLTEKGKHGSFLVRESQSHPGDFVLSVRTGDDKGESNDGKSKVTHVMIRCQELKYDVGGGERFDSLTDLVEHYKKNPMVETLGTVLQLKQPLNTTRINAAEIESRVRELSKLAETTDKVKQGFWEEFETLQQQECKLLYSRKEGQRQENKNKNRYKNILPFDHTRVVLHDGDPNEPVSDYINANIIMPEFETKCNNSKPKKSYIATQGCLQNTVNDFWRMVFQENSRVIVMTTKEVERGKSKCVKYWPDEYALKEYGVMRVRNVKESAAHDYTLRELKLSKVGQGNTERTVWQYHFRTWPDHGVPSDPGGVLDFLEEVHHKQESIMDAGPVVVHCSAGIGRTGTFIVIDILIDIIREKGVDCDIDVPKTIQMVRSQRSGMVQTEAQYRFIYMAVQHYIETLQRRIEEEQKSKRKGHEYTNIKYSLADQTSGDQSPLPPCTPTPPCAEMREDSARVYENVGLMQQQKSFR
Assay: SHP2 degradation by Western blot in KYSE520 cells
Settings: 1 µM
ASSAY ENDPOINT: % of SHP2 protein degradation in KYSE520 cell line

// solved cases for % of SHP2 protein degradation in KYSE520 cell line follow
Cc1ncsc1-c1ccc([C@@H](C)NC(=O)[C@H]2C[C@H](O)CN2C(=O)[C@H](NC(=O)CCCCCCCCCCNC(=O)CC(=O)Nc2cccc(Sc3ncc(N4CCC(C)(N)CC4)nc3N)c2Cl)C(C)(C)C)cc1 : >95%
Cc1ncsc1-c1ccc([C@@H](C)NC(=O)[C@H]2C[C@H](O)CN2C(=O)[C@H](NC(=O)COCCOCCOCCNC(=O)CCC(=O)Nc2cccc(Sc3ncc(N4CCC(C)(N)CC4)nc3N)c2Cl)C(C)(C)C)cc1 : >95%

Now examine the next entry.
Req: Field request: % of SHP2 protein degradation in KYSE520 cell line | item: `Cc1ncsc1-c1ccc([C@@H](C)NC(=O)[C@H]2C[C@H](O)CN2C(=O)[C@H](NC(=O)CCCCCCCOc2ccc(NC(=O)CCC(=O)Nc3cccc(Sc4ncc(N5CCC(C)(N)CC5)nc4N)c3Cl)cc2)C(C)(C)C)cc1`
Resp: >95%
